Biological target: Calcitonin gene-related peptide type 1 receptor (Homo sapiens, UniProt O60894+Q16602)
Sequence (Q16602 whole entry, one chain of several): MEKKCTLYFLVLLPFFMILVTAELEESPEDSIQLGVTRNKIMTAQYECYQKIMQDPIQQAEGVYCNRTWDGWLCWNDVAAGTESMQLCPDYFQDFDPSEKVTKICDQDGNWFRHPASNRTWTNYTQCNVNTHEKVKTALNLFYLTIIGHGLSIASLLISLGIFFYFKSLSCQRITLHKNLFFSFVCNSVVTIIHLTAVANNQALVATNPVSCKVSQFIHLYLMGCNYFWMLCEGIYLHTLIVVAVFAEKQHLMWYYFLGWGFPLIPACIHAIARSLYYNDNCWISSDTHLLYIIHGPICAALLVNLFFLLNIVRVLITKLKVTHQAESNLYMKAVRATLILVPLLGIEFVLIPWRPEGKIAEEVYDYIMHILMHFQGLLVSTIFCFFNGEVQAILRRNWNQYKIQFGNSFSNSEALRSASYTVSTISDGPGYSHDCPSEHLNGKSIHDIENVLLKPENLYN
Experiment: Displacement of [125I]-CGRP from human recombinant CGRP receptor
observable: log10(Ki) (log10 of the value in nM)

test smiles | log10(Ki)
COCc1cnc2n1C[C@H](c1cccc(F)c1F)CC[C@H]2NC(=O)N1CCC(n2c(=O)[nH]c3ncccc32)CC1 | -0.42
O=C(N[C@@H]1CC[C@@H](c2cccc(F)c2F)Cn2c(-c3ccccc3)cnc21)N1CCC(n2c(=O)[nH]c3ncccc32)CC1 | 0.04
CC(C)(O)c1cnc2n1C[C@H](c1cccc(F)c1F)CC[C@H]2NC(=O)N1CCC2(CC1)OC(=O)Nc1ncccc12 | -0.54
CCOC(C)(C)c1cnc2n1C[C@H](c1cccc(F)c1F)CC[C@H]2NC(=O)N1CCC2(CC1)OC(=O)Nc1ncccc12 | -1.30
O=C(N[C@@H]1CC[C@@H](c2cccc(F)c2F)Cn2c(CC(F)(F)F)cnc21)N1CCC2(CC1)C(=O)Nc1ncccc12 | -0.21
CC(C)(OCC(F)(F)F)c1cnc2n1C[C@H](c1cccc(F)c1F)CC[C@H]2NC(=O)N1CCC2(CC1)OC(=O)Nc1ncccc12 | -0.80
COC(C)(C)c1cnc2n1C[C@H](c1cccc(F)c1F)CC[C@H]2NC(=O)N1CCC(n2c(=O)[nH]c3ncccc32)CC1 | -1.40

* * *

Molecular target: Calcitonin gene-related peptide type 1 receptor (Homo sapiens, UniProt O60894+Q16602)
Test: Displacement of [125I]-CGRP from human recombinant CGRP receptor
pKi: −log10 of the molar value.
// reported pKi per item

test smiles | pKi
CC(C)c1cnc2n1C[C@H](c1cccc(F)c1F)CC[C@H]2NC(=O)N1CCC(n2c(=O)[nH]c3ncccc32)CC1 | 9.16
COC(C)(C)c1cnc2n1C[C@H](c1cccc(F)c1F)CC[C@H]2NC(=O)N1CCC2(CC1)OC(=O)Nc1ncccc12 | 10.30
CNCCc1cnc2n1C[C@H](c1cccc(F)c1F)CC[C@H]2NC(=O)N1CCC(n2c(=O)[nH]c3ncccc32)CC1 | 8.24
COC(C)(C)c1cnc2n1C[C@H](c1cccc(F)c1F)CC[C@H]2NC(=O)N1CCC2(CC1)C(=O)Nc1ncccc12 | 9.40

* * *

Target: Calcitonin gene-related peptide type 1 receptor (Homo sapiens, UniProt O60894+Q16602)
Assay: Antagonist activity at CGRP receptor assessed as inhibition of CGRP-stimulated cAMP production by cell based assay
Assay type: functional
pIC50: −log10 of the molar value.

test smiles | pIC50
O=C(N[C@@H]1CC[C@@H](c2cccc(F)c2F)Cn2c(-c3ccccc3)cnc21)N1CCC(n2c(=O)[nH]c3ncccc32)CC1 | 8.59
O=C(N[C@@H]1CC[C@@H](c2cccc(F)c2F)Cn2c(CC(F)(F)F)cnc21)N1CCC2(CC1)C(=O)Nc1ncccc12 | 9.03
COC(C)(C)c1cnc2n1C[C@H](c1cccc(F)c1F)CC[C@H]2NC(=O)N1CCC2(CC1)C(=O)Nc1ncccc12 | 9.09
COCc1cnc2n1C[C@H](c1cccc(F)c1F)CC[C@H]2NC(=O)N1CCC2(CC1)C(=O)Nc1ncccc12 | 8.77
O=C(N[C@@H]1CC[C@@H](c2cccc(F)c2F)Cn2c(-c3nccs3)cnc21)N1CCC(n2c(=O)[nH]c3ncccc32)CC1 | 8.44
O=C(N[C@@H]1CC[C@@H](c2cccc(F)c2F)Cn2ccnc21)N1CCC(n2c(=O)[nH]c3ncccc32)CC1 | 8.17
O=C(N[C@@H]1CC[C@@H](c2cccc(F)c2F)Cn2cc(CC(F)(F)F)nc21)N1CCC(n2c(=O)[nH]c3ncccc32)CC1 | 8.14
